Target: Cyclin-A1/Cyclin-A2/Cyclin-dependent kinase 2 (Homo sapiens, UniProt P24941)
Experiment: Inhibition of recombinant Cdk2/cyclinA
measurement.kind: pIC50
Schema: pIC50 number; meaning minus log10 of the concentration expressed in molar units.

# pIC50 of "CC(C)n1cnc2c(NCc3ccc(-c4cccs4)nc3)nc(N[C@H]3CC[C@H](N)CC3)nc21" = 9.05

We next turn to a different compound, shown below.
GET /value?item= "Cc1csc(-c2ccc(CNc3nc(N[C@H]4CC[C@H](N)CC4)nc4c3ncn4C(C)C)s2)n1" &field=pIC50 returns 10.00
